Data origin: patent US12435072B2

# MEASURED_ON: human recombinant AT2 receptor (Homo sapiens, UniProt P50052)
# Sequence (P50052 whole entry): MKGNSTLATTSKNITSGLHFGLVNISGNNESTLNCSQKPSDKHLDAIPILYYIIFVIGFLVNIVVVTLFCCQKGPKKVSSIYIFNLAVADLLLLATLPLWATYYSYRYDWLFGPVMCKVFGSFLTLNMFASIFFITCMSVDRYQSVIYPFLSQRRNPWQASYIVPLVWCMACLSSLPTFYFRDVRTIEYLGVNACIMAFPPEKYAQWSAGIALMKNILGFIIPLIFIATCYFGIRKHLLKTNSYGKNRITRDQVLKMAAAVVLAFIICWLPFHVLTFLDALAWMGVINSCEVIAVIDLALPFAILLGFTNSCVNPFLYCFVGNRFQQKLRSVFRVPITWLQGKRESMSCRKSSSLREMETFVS
# METHOD_SUMMARY: Binding to AT2 receptor, radiometric scintillation assay (Eurofins)
# TEST_SETTINGS: ligand 125I CGP 42112A, tested at 1, 10, 100 and 1000 nM
pIC50: −log10 of the molar value.
TEST_READOUT: pIC50

Examples with their reported pIC50 follow.
Cc1nccn1Cc1ccc(-c2cc(CC(C)C)sc2S(=O)(=O)NC(=O)NCCC(F)(F)F)nc1: 6.90
Cc1nccn1Cc1ccc(-c2cc(CC(C)C)sc2S(=O)(=O)NC(=O)NCc2cc(F)cc(F)c2)nc1: 6.45
CC(C)Cc1cc(-c2ccc(Cn3ccnc3C(C)C)c(F)c2)c(S(=O)(=O)NC(=O)NCCCC(F)(F)F)s1: 8.54

1: Cc1nccn1Cc1ccc(-c2cc(CC(C)C)sc2S(=O)(=O)NC(=O)NCCC(F)(F)F)c(F)c1
2: CCc1nccn1Cc1ccc(-c2cc(CC(C)C)sc2S(=O)(=O)NC(=O)NCc2ccc(F)cc2)cc1F.O=C(O)C(F)(F)F
3: Cc1cn(Cc2ccc(-c3cc(CC(C)C)sc3S(=O)(=O)NC(=O)NCc3ccccc3)cc2)c(C)n1
4: Cc1nccn1Cc1ccc(-c2cc(CC(C)C)sc2S(=O)(=O)NC(=O)NCC(C)C)cc1F.O=C(O)C(F)(F)F
Output the entries ranked by pIC50 from maximum down to minimum. Record the ranking as a list of labels in the requested order. 2, 4, 1, 3
(2: 8.80, 4: 8.07, 1: 7.60, 3: 7.04)
